Reference for the values: patent US9150546B2

# study-system: human P2X3 receptor (Homo sapiens (Human), UniProt P56373)
# Sequence (P56373 whole entry): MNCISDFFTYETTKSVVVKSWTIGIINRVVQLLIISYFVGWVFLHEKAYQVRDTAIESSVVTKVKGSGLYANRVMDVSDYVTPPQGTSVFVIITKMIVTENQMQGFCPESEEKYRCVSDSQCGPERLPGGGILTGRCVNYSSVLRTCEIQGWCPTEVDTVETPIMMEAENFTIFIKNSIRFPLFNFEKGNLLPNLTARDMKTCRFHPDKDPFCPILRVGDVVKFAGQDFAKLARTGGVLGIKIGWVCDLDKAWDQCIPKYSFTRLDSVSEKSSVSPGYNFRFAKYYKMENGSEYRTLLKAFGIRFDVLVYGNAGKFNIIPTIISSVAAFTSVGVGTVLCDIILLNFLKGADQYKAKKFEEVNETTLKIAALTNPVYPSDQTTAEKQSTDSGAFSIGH
# assay-overview: P2X3 receptor inhibition, ATP-evoked Fluo-3 fluorescence (FDSS 3000)
# measurement-setup: C6BU-1 cell transfected with human P2X3 receptor gene
pIC50: −log10 of the molar value.
measurement-type: pIC50

line-notation: CC(C)Oc1ccc(Nc2nc(=O)n(CCN)c(=O)n2Cc2ccc(Cl)cc2)cc1F
experimental-result: 6.58
//
line-notation: Cc1nc2cc(/N=c3\[nH]c(=O)n(CC(C)(C)C(=O)O)c(=O)n3Cc3ccc(Cl)cc3)ccc2o1
experimental-result: 6.34
//
line-notation: CC(C)Oc1ccc(/N=c2\[nH]c(=O)n(CC(=O)NCC(N)=O)c(=O)n2Cc2ccc(Cl)cc2)cc1Cl
experimental-result: 8.30
//
line-notation: CC(C)Oc1ccc(/N=c2\[nH]c(=O)n(CC(=O)NCC#N)c(=O)n2Cc2ccc(Cl)cc2)cc1Cl
experimental-result: 8.22

* * *

# study-system: human P2X3 receptor (Homo sapiens (Human))
# assay-overview: P2X3 receptor inhibition, ATP-evoked Fluo-3 fluorescence (FDSS 3000)
# measurement-setup: C6BU-1 cell transfected with human P2X3 receptor gene

line-notation: CC(C)n1c(=O)nc(Nc2ccc(C(=O)NC3CC3)cc2)n(Cc2ccc(Cl)cc2)c1=O
study-system: human P2X3 receptor (Homo sapiens (Human))
IC50, nM: 682

line-notation: O=c1nc(Nc2ccc(OC3CCOCC3)cc2)n(Cc2ccc(Cl)cc2)c(=O)n1CCO
study-system: human P2X3 receptor (Homo sapiens (Human))
IC50, nM: 309

line-notation: COC(=O)C[C@H](C)n1c(=O)[nH]/c(=N\c2ccc(OC(C)C)c(F)c2)n(Cc2ccc(Cl)cc2)c1=O
study-system: human P2X3 receptor (Homo sapiens (Human))
IC50, nM: 72

line-notation: CC(C)Oc1ccc(/N=c2\[nH]c(=O)n(CCC(=O)NCC#N)c(=O)n2Cc2ccc(Cl)cc2)cc1F
study-system: human P2X3 receptor (Homo sapiens (Human))
IC50, nM: 18

line-notation: CC(C)Cc1ccc(Nc2nc(=O)n(CC(CO)CO)c(=O)n2Cc2ccc(Cl)cc2)cc1
study-system: human P2X3 receptor (Homo sapiens (Human))
IC50, nM: 46

line-notation: CC(C)Oc1ccc(Nc2nc(=O)n(CCNC(=O)N(C)C)c(=O)n2Cc2ccc(Cl)cc2)cc1F
study-system: human P2X3 receptor (Homo sapiens (Human))
IC50, nM: 36

line-notation: CN(C)Cc1ccc(/N=c2\[nH]c(=O)n(CC(C)(C)C(=O)O)c(=O)n2Cc2ccc(Cl)cc2)cc1Cl
study-system: human P2X3 receptor (Homo sapiens (Human))
IC50, nM: 125

line-notation: O=c1nc(Nc2cccc(-c3ccon3)c2)n(Cc2ccc(Cl)cc2)c(=O)n1CCO
study-system: human P2X3 receptor (Homo sapiens (Human))
IC50, nM: 555

* * *

# IC50 annotations
# study-system: human P2X3 receptor (Homo sapiens (Human))
# assay-overview: P2X3 receptor inhibition, ATP-evoked Fluo-3 fluorescence (FDSS 3000)
# measurement-setup: C6BU-1 cell transfected with human P2X3 receptor gene
measurement-type: IC50

line-notation: COC(=O)C(C)(C)Cn1c(=O)[nH]/c(=N\c2ccc(OC)c(C)c2)n(Cc2ccc(Cl)cc2)c1=O
measurement-type: IC50
experimental-result: 117 nM

line-notation: COC(=O)C(C)(C)Cn1c(=O)[nH]/c(=N\c2ccc3[nH]ccc3c2)n(Cc2ccc(Cl)cc2)c1=O
measurement-type: IC50
experimental-result: 80 nM

line-notation: CC(C)COc1ccc(Nc2nc(=O)n(CCO)c(=O)n2Cc2ccc(Cl)cc2)cc1F
measurement-type: IC50
experimental-result: 148 nM

line-notation: CCOc1ccc(Nc2nc(=O)n(CCO)c(=O)n2Cc2ccc(Cl)cc2)cc1F
measurement-type: IC50
experimental-result: 104 nM

* * *

# study-system: human P2X3 receptor (Homo sapiens (Human))
# assay-overview: P2X3 receptor inhibition, ATP-evoked Fluo-3 fluorescence (FDSS 3000)
# measurement-setup: C6BU-1 cell transfected with human P2X3 receptor gene
pIC50: −log10 of the molar value.

line-notation: CCN(CC)c1nc(=O)n(Cc2ccc(Cl)cc2)/c(=N/c2ccc(OC(C)C)c(Cl)c2)[nH]1
pIC50: 6.37

line-notation: CCOC(=O)CCn1c(=O)nc(Nc2ccc(OC(C)C)c(Cl)c2)n(Cc2ccc(Cl)cc2)c1=O
pIC50: 8.10

line-notation: N#CCOc1ccc(Nc2nc(=O)n(CCO)c(=O)n2Cc2ccc(Cl)cc2)cc1
pIC50: 6.23

line-notation: COC(=O)C(C)(C)Cn1c(=O)[nH]/c(=N\c2ccc(C(=O)C(C)(C)C)cc2)n(Cc2ccc(Cl)cc2)c1=O
pIC50: 6.35

line-notation: O=c1nc(Nc2ccc(N3CCCCC3)cc2)n(Cc2ccc(Cl)cc2)c(=O)n1CCO
pIC50: 6.85

* * *

# study-system: human P2X3 receptor (Homo sapiens (Human), UniProt P56373)
# assay-overview: P2X3 receptor inhibition, ATP-evoked Fluo-3 fluorescence (FDSS 3000)
# measurement-setup: C6BU-1 cell transfected with human P2X3 receptor gene
pIC50: −log10 of the molar value.
Known pIC50 of a selection of compounds

line-notation: CC(C)CNC(=O)c1ccc(Nc2nc(=O)n(C(C)C)c(=O)n2Cc2ccc(Cl)cc2)cc1
pIC50: 6.06

line-notation: CC(C)Oc1ccc(/N=c2\[nH]c(=O)n(CCC(C)(C)C(=O)OCc3ccccc3)c(=O)n2Cc2ccc(Cl)cc2)cc1Cl
pIC50: 7.57

line-notation: CC(C)Oc1ccc(/N=c2\[nH]c(=O)n(CC(=O)NCCO)c(=O)n2Cc2ccc(Cl)cc2)cc1Cl
pIC50: 8.22

line-notation: COC(=O)CCn1c(=O)[nH]/c(=N\c2ccc(OC(C)C)c(F)c2)n(Cc2ccc(C)cc2)c1=O
pIC50: 7.92

line-notation: CC(C)Oc1ccc(/N=c2\[nH]c(=O)n(CCCC(=O)O)c(=O)n2Cc2ccc(Cl)cc2)cc1Cl
pIC50: 7.89

line-notation: COC(=O)C(C)(C)Cn1c(=O)[nH]/c(=N\c2cccc(C(F)(F)F)c2)n(Cc2ccc(Cl)cc2)c1=O
pIC50: 7.62

line-notation: COC(=O)C(C)(C)Cn1c(=O)[nH]/c(=N\c2ccc3c(ccn3C)c2)n(Cc2ccc(Cl)cc2)c1=O
pIC50: 6.17

line-notation: COC(=O)C(C)(C)Cn1c(=O)[nH]/c(=N\c2ccc(OC(C)C)c(Cl)c2)n(CC2CCCCC2)c1=O
pIC50: 7.96

line-notation: COC(=O)[C@@H](C)Cn1c(=O)nc(Nc2ccc(OC(C)C)c(C)c2)n(Cc2ccc(Cl)cc2)c1=O
pIC50: 8.00

line-notation: CC(C)n1c(=O)nc(Nc2cccc(OC(F)(F)F)c2)n(Cc2ccc(F)cc2)c1=O
pIC50: 6.01

line-notation: CC(C)Oc1ccc(Nc2nc(=O)n(CC3(CO)CC3)c(=O)n2Cc2ccc(Cl)cc2)cc1F
pIC50: 8.15

line-notation: COc1nc(=O)n(Cc2ccc(Cl)cc2)/c(=N/c2ccc(OC(C)C)c(Cl)c2)[nH]1
pIC50: 6.70

line-notation: Cc1cc(/N=c2\[nH]c(=O)n([C@H](C)CC(=O)O)c(=O)n2Cc2ccc(Cl)cc2)ccc1OC(C)C
pIC50: 7.40

line-notation: CC(C)(Cn1c(=O)[nH]/c(=N\c2cccc(OC(F)(F)F)c2)n(Cc2ccc(Cl)cc2)c1=O)C(=O)O
pIC50: 7.00

line-notation: CCOC(=O)c1ccccc1Cn1c(=O)[nH]/c(=N\c2ccc(OC(C)C)c(F)c2)n(Cc2ccc(Cl)cc2)c1=O
pIC50: 7.62

line-notation: Cc1cc(/N=c2\[nH]c(=O)n(C[C@@H](C)C(=O)O)c(=O)n2Cc2ccc(Cl)cc2)ccc1OC(C)C
pIC50: 7.38

line-notation: Cc1ccc(Cn2c(=O)n(CC(C)(C)C(=O)O)c(=O)[nH]/c2=N\c2ccc(OC(C)C)c(F)c2)cc1F
pIC50: 7.00

line-notation: CC(C)Oc1ccc(/N=c2\[nH]c(=O)n(C[C@@H](C)C(=O)O)c(=O)n2Cc2ccc(Cl)cc2)cc1
pIC50: 7.00

line-notation: CC(C)(Cn1c(=O)[nH]/c(=N\c2cccc(C(F)(F)F)c2)n(Cc2ccc(Cl)cc2)c1=O)C(=O)O
pIC50: 7.46

line-notation: CC(C)n1c(=O)nc(Nc2ccc(Oc3ccccc3)cc2)n(Cc2ccc(Cl)cn2)c1=O
pIC50: 6.07

line-notation: CCOc1ccc(/N=c2\[nH]c(=O)n(CC(C)(C)C(=O)O)c(=O)n2Cc2ccc(Cl)cc2)cc1Cl
pIC50: 7.70

line-notation: CC(C)Oc1ccc(/N=c2\[nH]c(=O)n(Cc3ccc(C(=O)O)cc3)c(=O)n2Cc2ccc(Cl)cc2)cc1F
pIC50: 8.10

line-notation: CC(C)Oc1ccc(Nc2nc(=O)n(CC(C)(C)CO)c(=O)n2Cc2ccc(Cl)cc2)cc1F
pIC50: 8.10

line-notation: Cc1cc(/N=c2\[nH]c(=O)n(C[C@H](C)C(=O)O)c(=O)n2CC2CCCCC2)ccc1OC(C)C
pIC50: 7.01
